Target: T1, human IGSF11 (VSIG3) ECD, His-tagged (human, UniProt Q5DX21 23-241)
T1 construct: in part bought (SinoBiological 13094-H08H); also called HIS-IGSF11; IGSF11-HIS; not shown: His tag
T1 sequence: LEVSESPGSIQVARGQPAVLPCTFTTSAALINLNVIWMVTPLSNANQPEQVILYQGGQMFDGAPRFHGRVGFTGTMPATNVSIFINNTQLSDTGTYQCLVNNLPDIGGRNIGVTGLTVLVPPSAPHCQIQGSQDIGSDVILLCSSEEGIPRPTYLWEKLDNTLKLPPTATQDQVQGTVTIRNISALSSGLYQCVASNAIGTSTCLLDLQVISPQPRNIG
Test: blocking ELISA: VSIR-Fc immobilised, IgG dilution series pre-incubated with 200 nM IGSF11 ECD-His, bound IGSF11 detected with anti-His-HRP
Recorded IC50 (read off the curve) values for a group of binders are listed next.

Observe how each entry below is paired with its result.
binder	IC50 (read off the curve)
B-007 (chain-swapped IgG1) (antibody, V domains shown, human IgG1 format; also called B7) VH: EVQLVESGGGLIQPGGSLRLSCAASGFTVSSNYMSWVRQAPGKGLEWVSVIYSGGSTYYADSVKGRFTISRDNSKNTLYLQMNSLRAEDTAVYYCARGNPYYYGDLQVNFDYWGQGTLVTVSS VL: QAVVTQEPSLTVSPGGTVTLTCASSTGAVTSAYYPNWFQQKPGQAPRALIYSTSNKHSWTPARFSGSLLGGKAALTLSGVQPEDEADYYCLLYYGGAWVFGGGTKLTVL	~3 nM
B-004 (chain-swapped IgG1) (antibody, V domains shown, human IgG1 format; also called B4) VH: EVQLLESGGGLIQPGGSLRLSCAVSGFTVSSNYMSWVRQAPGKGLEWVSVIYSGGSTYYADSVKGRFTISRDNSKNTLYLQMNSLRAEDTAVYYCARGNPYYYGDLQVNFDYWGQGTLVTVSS VL: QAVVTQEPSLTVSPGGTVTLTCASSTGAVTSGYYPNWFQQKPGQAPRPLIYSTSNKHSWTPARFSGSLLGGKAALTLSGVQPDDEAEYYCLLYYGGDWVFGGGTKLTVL	~5 nM
B-002 (chain-swapped IgG1) (antibody, V domains shown, human IgG1 format; also called B2) VH: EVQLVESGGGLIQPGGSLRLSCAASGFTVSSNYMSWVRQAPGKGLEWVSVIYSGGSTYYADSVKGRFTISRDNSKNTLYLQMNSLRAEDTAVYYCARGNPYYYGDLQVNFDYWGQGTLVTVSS VL: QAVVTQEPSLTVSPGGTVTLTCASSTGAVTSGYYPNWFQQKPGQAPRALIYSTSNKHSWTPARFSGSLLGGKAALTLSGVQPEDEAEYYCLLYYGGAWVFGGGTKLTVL	4 to 5 nM

[in] I am curious: what IC50 (read off the curve) value has been reported for B-006 (chain-swapped IgG1) (antibody, V domains shown, human IgG1 format; also called B6) VH: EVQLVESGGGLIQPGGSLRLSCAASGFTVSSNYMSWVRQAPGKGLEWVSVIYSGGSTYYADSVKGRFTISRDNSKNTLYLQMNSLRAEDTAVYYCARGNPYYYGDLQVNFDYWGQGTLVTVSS VL: QAVVTQEPSLTVSPGETVTLTCASSTGAVTSGYYPNWFQQRPGQAPRALIYSTSNKDSWTPARFSGSLLGGKAALTLSGVQPEDEAEYYCLLYYGGAWVFGGGTKLTVL ?
[out] ~5 nM
